- system name: UniProt Q8I442
- experiment summary: IC50 for competition of protein binding to Kinobeads;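 also: native unpurified kinases from lysate captured on beads bearing immobilized kinase inhibitors, with bead-bound kinases quantified by mass spectrometry across compound doses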
- reported conditions: assay detail: Kinobeads competition in P. falciparum blood-stage lysate
observation type: pIC50
One number for each entry, as −log10 of the molar value.

Quote pIC50 reported for O=c1[nH]c2ccc(Cl)cc2c(NC2CN3CCC2CC3)c1-c1nc2ccccc2[nH]1 (stereo unspecified) please.
5.04

---

- system name: UniProt Q8IAX8
- Sequence (Q8IAX8 whole entry): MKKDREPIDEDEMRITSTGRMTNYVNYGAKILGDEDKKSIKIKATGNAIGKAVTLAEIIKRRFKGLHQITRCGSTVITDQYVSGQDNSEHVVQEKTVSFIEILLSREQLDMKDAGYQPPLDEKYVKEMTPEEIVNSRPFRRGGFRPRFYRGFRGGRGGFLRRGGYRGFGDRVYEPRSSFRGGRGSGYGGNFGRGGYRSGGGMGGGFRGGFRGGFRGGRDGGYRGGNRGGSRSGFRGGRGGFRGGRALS
- experiment summary: IC50 for competition of protein binding to Kinobeads
- reported conditions: assay detail: Kinobeads competition in P. falciparum blood-stage lysate
observation type: IC50

Quote IC50 reported for O=c1[nH]c2ccc(Cl)cc2c(NC2CN3CCC2CC3)c1-c1nc2ccccc2[nH]1 (stereo unspecified) please.
> 20 µM
